tested on: α7 integrin (LacZ reporter in α7βgal+/− myoblasts); test: Myoblast α7+/LacZ integrin FDG assay (Burkin assay in myoblasts, 96-well); format: cell-based, mouse; details: 0.5 uM; α7+/LacZ myoblasts, 96-well
Is Burkin Assay in Myoblasts, signal relative to DMSO at least 1? Then criterion met. If not, criterion not met.

Example entries begin here.
COMPOUND | ANSWER LABEL
O=C(COc1ccc(Cl)cc1)N1CCN(C2CCCC2)CC1.O=C(O)C(=O)O [MLS001221318-01] | criterion met
COc1cccc(C(=O)COc2ccc3ccc(=O)oc3c2)c1 [MLS000677675-01] | criterion met
CCCS(=O)(=O)c1nc(S(=O)(=O)c2ccc(C)cc2)c(N2CCCC2)s1 [MLS000113985-01] | criterion met

Prompt: Quick check: does N#Cc1ccc(OCC(O)CS(=O)(=O)c2ccccc2)cc1 (centres unmarked) [MLS000721584-01] have Burkin Assay in Myoblasts, signal relative to DMSO greater than or equal to 1?
Completion: criterion not met

Prompt: Hi team, for COC(=O)c1ccccc1NC(=O)c1cc[n+]([O-])cc1 [MLS001167169-01] , is the recorded Burkin Assay in Myoblasts, signal relative to DMSO at or above 1?
Completion: criterion met

Prompt: Check if Burkin Assay in Myoblasts, signal relative to DMSO >= 1 (inclusive). Item: Cc1ccc2c(c1)/C(=C/c1ccco1)C(=O)N2 [MLS000682750-01]
Completion: criterion met

Prompt: Form field: Burkin Assay in Myoblasts, signal relative to DMSO at least 1? Entry: COC(=O)Cn1c(=O)c2c(nc3n2CC(C)CN3Cc2ccccc2)n(C)c1=O (centres unmarked) [MLS001166758-01]
Completion: criterion not met

Prompt: Reported Burkin Assay in Myoblasts, signal relative to DMSO reaches at least 1 for CC(=O)C1=C(C)Nc2ncnn2C1c1ccc(C)cc1 (centres unmarked) [MLS001197779-01] ?
Completion: criterion not met

---

test system: α7 integrin (LacZ reporter in α7βgal+/− myoblasts); test: Myoblast α7+/LacZ integrin FDG assay (Burkin assay in myoblasts, 96-well); assay type: cell-based, mouse; conditions: 0.5 uM; α7+/LacZ myoblasts, 96-well
Returns one of label 1 or label 0; label 1 when Burkin Assay in Myoblasts, signal relative to DMSO is >= 1.

Some solved entries appear below for comparison.
INPUT SMILES | ANSWER LABEL
N#Cc1nc(COc2ccccc2)oc1N1CCCC1 | label 1
Cc1cccn2c(=O)c3cc(C(=O)NC4CCCCC4)n(C)c3nc12 | label 1
CCCCNC(=O)CSc1nnc(Cc2ccc(Cl)c(Cl)c2)c(=O)[nH]1 | label 0
CC1CCN(S(=O)(=O)c2ccc(S(=O)(=O)N3CCCC3)cc2)CC1 | label 0
Oc1c(Br)cc(Br)cc1CNc1cccc2cccnc12 | label 0

# ---- query molecule ----
Prompt: Form field: Burkin Assay in Myoblasts, signal relative to DMSO at least 1? Entry: COc1ccc(S(=O)(=O)N2CCCCCC2)cc1C(=O)N1CCN(c2ccccc2O)CC1
Completion: label 1

---

test system: α7 integrin (LacZ reporter in α7+/LacZ myotubes); assay: Myotube α7 integrin FDG assay (Burkin assay in myotubes, 96-well); assay type: cell-based, mouse; conditions: Mus musculus, Myotube; myotubes, 20 uM; read-out: Burkin Assay in Myotubes, α7 integrin LacZ reporter signal relative to DMSO
I'd appreciate it if you could supply fold induction at 20 µM values for the items below.
Give bare numbers.

Example results:
INPUT SMILES | MEASURED ENDPOINT | OBSERVED VALUE
COc1ccc(N2CCN(C(=O)c3cc(C)on3)CC2)cc1 | fold induction at 20 µM | 0.893
COc1cc(C)c(NC(=O)COc2ccc3c(c2)OCO3)cc1C | fold induction at 20 µM | 1.14
COc1ccc(CCNC(=O)c2nn(C)c3c2CS(=O)(=O)c2ccccc2-3)cc1OC | fold induction at 20 µM | 1.09

Next item in the queue.
Prompt: Given Nc1nccc(-c2ccc(-n3cnc4ccccc43)cc2)n1 , report its fold induction at 20 µM on α7 integrin (LacZ reporter in α7+/LacZ myotubes).
Completion: 1.45
